Provide the reported IC50 of each item.
# TESTED ON: hVR1 (Homo sapiens)
# Sequence (Q8NER1 whole entry): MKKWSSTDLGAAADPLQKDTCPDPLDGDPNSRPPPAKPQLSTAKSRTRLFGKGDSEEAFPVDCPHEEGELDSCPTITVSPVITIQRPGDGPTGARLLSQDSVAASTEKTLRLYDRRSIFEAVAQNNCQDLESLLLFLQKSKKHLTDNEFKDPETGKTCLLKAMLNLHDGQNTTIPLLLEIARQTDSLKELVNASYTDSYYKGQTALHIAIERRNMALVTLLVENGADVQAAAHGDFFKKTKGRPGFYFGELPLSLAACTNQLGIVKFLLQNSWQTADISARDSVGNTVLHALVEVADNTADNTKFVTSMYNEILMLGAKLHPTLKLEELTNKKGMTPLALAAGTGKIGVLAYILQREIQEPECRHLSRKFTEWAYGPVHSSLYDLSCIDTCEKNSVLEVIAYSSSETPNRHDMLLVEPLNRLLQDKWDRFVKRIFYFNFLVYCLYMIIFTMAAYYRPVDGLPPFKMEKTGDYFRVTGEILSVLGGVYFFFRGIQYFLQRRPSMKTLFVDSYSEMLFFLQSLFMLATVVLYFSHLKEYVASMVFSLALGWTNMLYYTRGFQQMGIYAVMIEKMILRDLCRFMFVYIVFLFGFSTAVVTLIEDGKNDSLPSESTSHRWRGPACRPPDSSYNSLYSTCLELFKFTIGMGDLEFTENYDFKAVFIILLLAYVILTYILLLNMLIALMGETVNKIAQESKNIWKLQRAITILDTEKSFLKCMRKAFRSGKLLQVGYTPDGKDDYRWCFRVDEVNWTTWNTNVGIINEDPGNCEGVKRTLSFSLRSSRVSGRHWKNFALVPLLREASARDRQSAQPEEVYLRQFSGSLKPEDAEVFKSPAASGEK
# MEASUREMENT DESCRIPTION: Human VR1 (hVR1) Functional Assay (FLIPR intracellular calcium, capsaicin challenge)
# RUN CONDITIONS: capsaicin 0.030 μM; HEK293 cells expressing hVR1

Example compounds with recorded IC50:
{"columns": ["COMPOUND SMILES", "MEASURED"],
 "data": [
  ["NS(=O)(=O)c1ccccc1-c1ccc2[nH]c(CCc3ccc(F)c(C(F)(F)F)c3)nc2c1", "0.011 µM"],
  ["NS(=O)(=O)c1ccccc1-c1ccc2[nH]c(CCc3ccc(OC(F)(F)F)cc3)nc2c1", "0.034 µM"],
  ["CS(=O)(=O)Nc1ccccc1-c1ccc2[nH]c(/C=C/c3ccc(Br)cc3)nc2c1", "0.17 µM"],
  ["NS(=O)(=O)c1ccccc1-c1ccc2[nH]c(CCc3ccc(C(F)(F)F)cc3)nc2c1", "0.006 µM"],
  ["CN(C)S(=O)(=O)c1ccccc1-c1ccc2[nH]c(CCc3ccc(C(F)(F)F)cc3)nc2c1", "0.003 µM"],
  ["NS(=O)(=O)c1ccccc1-c1ccc2[nH]c(CCc3cccc(OC(F)(F)F)c3)nc2c1", "0.008 µM"],
  ["CNS(=O)(=O)c1ccccc1-c1ccc2[nH]c(/C=C/c3ccc(F)c(F)c3)nc2c1", "0.027 µM"]
]}

Fill in: IC50 of NS(=O)(=O)c1ccccc1-c1ccc2[nH]c(/C=C/c3ccc(C(F)F)cc3)nc2c1 is ___
0.02 µM

====

# TESTED ON: hVR1 (Homo sapiens)
# Construct: expressed in transfected cells; host or cells: HEK293
# MEASUREMENT DESCRIPTION: Human VR1 (hVR1) Functional Assay (FLIPR intracellular calcium, capsaicin challenge)
# Type: cell-based
# RUN CONDITIONS: test concentration 1 μM; capsaicin 0.030 μM; HEK293 cells expressing hVR1
Provide the reported inhibition at 1 µM of each item.
Note: state the figure and append the unit.

{"columns": ["MOLECULE", "TESTED ON", "MEASURED"],
 "data": [
  ["CC(O)c1ccccc1-c1ccc2[nH]c(CCc3ccc(S(=O)(=O)C(F)(F)F)cc3)nc2c1 (stereo not drawn) [Cpd 46]", "hVR1 (Homo sapiens)", "100%"],
  ["CN(C)c1ccc(/C=C/c2nc3cc(-c4ccccc4NS(C)(=O)=O)ccc3[nH]2)cc1 [Cpd 413]", "hVR1 (Homo sapiens)", "82%"]
]}

Alright, here's another molecule for you.
Fill in: inhibition at 1 µM of CNS(=O)(=O)c1ccccc1-c1ccc2[nH]c(/C=C/c3ccc(N(C)C)cc3)nc2c1 [Cpd 318] is ___
100%

====

# TESTED ON: UniProtKB Q8NER1
# MEASUREMENT DESCRIPTION: Human VR1 (hVR1) Functional Assay (FLIPR intracellular calcium, capsaicin challenge)
# RUN CONDITIONS: capsaicin 0.030 μM; HEK293 cells expressing hVR1
OBSERVATION TYPE: IC50

Example compounds with recorded IC50:
{"columns": ["COMPOUND", "IC50"],
 "data": [
  ["Oc1ccccc1-c1ccc2[nH]c(C3CC3c3ccc(C(F)(F)F)cc3)nc2c1 (stereo not shown)", "> 500 nM"],
  ["NS(=O)(=O)c1ccccc1-c1ccc2[nH]c(C#Cc3ccccc3)nc2c1", "26 nM"],
  ["CC(=O)c1ccccc1-c1cc2nc(/C=C/c3ccc(C(F)(F)F)cc3)[nH]c2cc1Cl", "130 nM"],
  ["NS(=O)(=O)c1ccccc1-c1ccc2[nH]c(CCc3ccccc3)nc2c1", "23 nM"]
]}

I have 7 compounds here; please give me IC50 for each one.
1. CS(=O)(=O)c1ccccc1-c1ccc2[nH]c(C3CC3c3ccc(C(F)(F)F)cc3)nc2c1 (stereo not shown)
2. CNS(=O)(=O)c1ccccc1-c1ccc2[nH]c(/C=C/c3ccc(OC(F)(F)F)cc3)nc2c1
3. NS(=O)(=O)c1ccccc1-c1ccc2[nH]c(/C=C/c3ccc(S(=O)(=O)C(F)(F)F)cc3)nc2c1
4. NS(=O)(=O)c1ccc(C(F)(F)F)cc1-c1ccc2[nH]c(CCc3ccc(C(F)(F)F)cc3)nc2c1
5. CC(O)c1ccccc1-c1ccc2[nH]c(/C=C/c3ccc(C(F)(F)F)cc3)nc2c1 (stereo not shown)
6. NS(=O)(=O)c1ccccc1-c1ccc2[nH]c(/C=C/c3ccc(Cl)c(Cl)c3)nc2c1
7. CNS(=O)(=O)c1ccccc1-c1ccc2[nH]c(/C=C/c3ccc(F)cc3F)nc2c1

19 nM
13 nM
22 nM
20 nM
45 nM
13 nM
59 nM

I have 7 compounds here; please give me IC50 for each one.
1. CS(=O)(=O)Nc1ccccc1-c1ccc2[nH]c(/C=C/c3ccc(F)c(F)c3)nc2c1
2. NS(=O)(=O)c1ccccc1-c1ccc2[nH]c(C3CC3c3ccc(C(F)(F)F)cc3)nc2c1 (stereo not shown)
3. CNS(=O)(=O)c1ccccc1-c1ccc2[nH]c(/C=C/c3ccc(C(F)(F)F)cc3C(F)(F)F)nc2c1
4. CNS(=O)(=O)c1ccccc1-c1ccc2[nH]c(/C=C/c3ccc(Cl)cc3)nc2c1
5. NS(=O)(=O)c1ccccc1-c1ccc2[nH]c(CCc3cc(F)cc(F)c3)nc2c1
6. CNS(=O)(=O)c1ccccc1-c1ccc2[nH]c(/C=C/c3ccc(S(C)(=O)=O)cc3)nc2c1
7. NS(=O)(=O)c1ccccc1-c1ccc2[nH]c([C@H]3C[C@@H]3c3ccc(C(F)(F)F)cc3)nc2c1

250 nM
38 nM
17 nM
44 nM
13 nM
> 500 nM
22 nM

Fill in: IC50 of CNS(=O)(=O)c1ccccc1-c1ccc2[nH]c(/C=C/c3ccc(Cl)cc3Cl)nc2c1 is ___
14 nM
